Data origin, for the record: ChEMBL document CHEMBL4052589

tested on: Mycobacterium tuberculosis; experiment: Selectivity ratio of MIC for Mycobacterium tuberculosis H37Rv harboring ATP synthase subunit-a K179N mutant supplemented with 4 fold MIC of 3-(4-Morpholinophenyl)-4-((pyridin-2-ylmethyl)amino)cyclobut-3-ene-1,2-dione to MIC for Mycobacterium tuberculosis H37Rv; assay type: functional
Value type: Selectivity ratio

// known answers, use as guide
Structure smiles string	Selectivity ratio
CO[C@H]1/C=C/O[C@@]2(C)Oc3c(C)c(O)c4c(O)c(c(/C=N/N5CCN(C)CC5)c(O)c4c3C2=O)NC(=O)/C(C)=C\C=C\[C@H](C)[C@H](O)[C@@H](C)[C@@H](O)[C@@H](C)[C@H](OC(C)=O)[C@@H]1C	<=4
O=c1c(NCc2ccccn2)c(-c2ccc(N3CCOCC3)cc2)c1=O	>8
O=c1c(NCc2ccccn2)c(-c2ccc(C(F)(F)F)cc2)c1=O	>8
NNC(=O)c1ccncc1	<=4

Next:
Answer briefly: Selectivity ratio recorded on Mycobacterium tuberculosis for O=c1c(NCc2cnccn2)c(-c2ccc(N3CCOCC3)cc2)c1=O
>8

----------
Answer each item with its documented MIC=>80.
tested on: Mycobacterium tuberculosis; experiment: Antimycobacterial activity against Mycobacterium tuberculosis H37Rv harboring ATP synthase subunit-c D28N mutant supplemented with 4 fold MIC of 3-(4-Morpholinophenyl)-4-((pyridin-2-ylmethyl)amino)cyclobut-3-ene-1,2-dione; type: functional
Give bare numbers, in µM.

Structure smiles string	Value type	Value
CO[C@H]1/C=C/O[C@@]2(C)Oc3c(C)c(O)c4c(O)c(c(/C=N/N5CCN(C)CC5)c(O)c4c3C2=O)NC(=O)/C(C)=C\C=C\[C@H](C)[C@H](O)[C@@H](C)[C@@H](O)[C@@H](C)[C@H](OC(C)=O)[C@@H]1C	MIC=>80	0.008

Next:
Note MIC=>80 for the molecule shown: NNC(=O)c1ccncc1
0.02

----------
tested on: Mycobacterium tuberculosis; assay: Antimycobacterial activity against Mycobacterium tuberculosis H37Rv harboring ATP synthase subunit a K179N mutant supplemented with 8 fold MIC of 3-(4-Morpholinophenyl)-4-((pyridin-2-ylmethyl)amino)cyclobut-3-ene-1,2-dione; assay type: functional
Value type: MIC=>80

Molecule	MIC=>80
CO[C@H]1/C=C/O[C@@]2(C)Oc3c(C)c(O)c4c(O)c(c(/C=N/N5CCN(C)CC5)c(O)c4c3C2=O)NC(=O)/C(C)=C\C=C\[C@H](C)[C@H](O)[C@@H](C)[C@@H](O)[C@@H](C)[C@H](OC(C)=O)[C@@H]1C [RIFAMPIN]	0.004 to 0.008 µM

Please go through the list and note MIC=>80 for each molecule.
1. NNC(=O)c1ccncc1 [ISONIAZID]
2. O=c1c(NCc2ccccn2)c(-c2ccc(N3CCOCC3)cc2)c1=O
3. O=c1c(NCc2cnccn2)c(-c2ccc(N3CCOCC3)cc2)c1=O

1: 0.02 to 0.03 µM; 2: >100 µM; 3: >100 µM

----------
Answer each item with its documented MIC=>80.
test system: Mycobacterium tuberculosis; experiment: Antimycobacterial activity against Mycobacterium tuberculosis H37Rv harboring ATP synthase subunit-c D28N mutant supplemented with 4 fold MIC of 3-(4-Morpholinophenyl)-4-((pyridin-2-ylmethyl)amino)cyclobut-3-ene-1,2-dione; type: functional

// known answers, use as guide
Structure smiles string	Value
O=c1c(NCc2ccccn2)c(-c2ccc(N3CCOCC3)cc2)c1=O	>100 µM
O=c1c(NCc2cnccn2)c(-c2ccc(N3CCOCC3)cc2)c1=O	>100 µM

Next:
Note MIC=>80 for the compound shown: O=c1c(NCc2ccccn2)c(-c2ccc(C(F)(F)F)cc2)c1=O
>100 µM
